Hi there, I'd appreciate the recorded MIC for every entry that follows.
Tested on: broad panel of different clinical isolates
Assay: microbe, parasite or virus in culture
Type: cell-based
Details: Staphylococcus epidermidis, S. epidermidis HAV# 276; cfr

MIC reading for C[C@H]1COc2c(N3CCN(C)CC3)c(F)cc3c(=O)c(C(=O)O)cn1c23 [Levofloxacin] : 128 mg/L

MIC reading for CSC1O[C@H]([C@H](NC(=O)[C@H]2NC[C@@H]3C[C@H](CC(C)C)CCO[C@H]32)[C@H](C)Cl)C(O)[C@@H](O)[C@H]1O (stereo partly shown) [FSA-513018b] : > 16 mg/L

MIC reading for CC[C@H]1OC(=O)[C@H](C)[C@@H](O[C@H]2C[C@@](C)(OC)[C@@H](O)[C@H](C)O2)[C@H](C)[C@@H](O[C@@H]2O[C@H](C)C[C@H](N(C)C)[C@H]2O)[C@](C)(O)C[C@@H](C)C(=O)[C@H](C)[C@@H](O)[C@]1(C)O [Erythromycin] : > 128 mg/L

MIC reading for CC(=O)NC[C@H]1CN(c2ccc(N3CCOCC3)c(F)c2)C(=O)O1 [Linezolid] : > 64 mg/L

MIC reading for O=C(N[C@H](CO)[C@H](O)c1ccc([N+](=O)[O-])cc1)C(Cl)Cl [Chloramphenicol] : > 128 mg/L

MIC reading for CC[C@H]1OC(=O)[C@H](C)[C@@H](O[C@H]2C[C@@](C)(OC)[C@@H](O)[C@H](C)O2)[C@H](C)[C@@H](O[C@@H]2O[C@H](C)C[C@H](N(C)C)[C@H]2O)[C@](C)(O)C[C@@H](C)CN(C)[C@H](C)[C@@H](O)[C@]1(C)O [Azithromycin] : > 64 mg/L

MIC reading for C[C@H]1c2cccc(O)c2C(=O)C2=C(O)[C@]3(O)C(=O)C(C(N)=O)=C(O)[C@@H](N(C)C)[C@@H]3[C@@H](O)[C@@H]21 [Doxycycline] : 2 mg/L

MIC reading for CN[C@H](CC(C)C)C(=O)N[C@H]1C(=O)N[C@@H](CC(N)=O)C(=O)N[C@H]2C(=O)N[C@H]3C(=O)N[C@H](C(=O)N[C@H](C(=O)O)c4cc(O)cc(O)c4-c4cc3ccc4O)[C@H](O)c3ccc(c(Cl)c3)Oc3cc2cc(c3O[C@@H]2O[C@H](CO)[C@@H](O)[C@H](O)[C@H]2O[C@H]2C[C@](C)(N)[C@H](O)[C@H](C)O2)Oc2ccc(cc2Cl)[C@H]1O [Vancomycin] : > 64 mg/L

MIC reading for CCC[C@@H]1C[C@@H](C(=O)N[C@@H]([C@H]2O[C@H](SC)[C@H](O)[C@@H](O)[C@H]2O)[C@H](C)Cl)N(C)C1 [Clindamycin, clindamycin, reference compound] : > 128 mg/L

MIC reading for CO/N=C(\C(=O)N[C@@H]1C(=O)N2C(C(=O)O)=C(CSc3nc(=O)c(=O)[nH]n3C)CS[C@H]12)c1csc(N)n1 [Ceftriaxone] : > 128 mg/L

###

System: broad panel of different clinical isolates
Assay: microbe, parasite or virus in culture
Type: cell-based
Settings: Staphylococcus epidermidis, S. epidermidis HAV# 275 Clinical; cfr
MEASURED_ATTRIBUTE: MIC (mg/L)
Quick reminder: number only, in mg/L, skip the unit.

MIC reading for CC[C@H]1OC(=O)[C@H](C)[C@@H](O[C@H]2C[C@@](C)(OC)[C@@H](O)[C@H](C)O2)[C@H](C)[C@@H](O[C@@H]2O[C@H](C)C[C@H](N(C)C)[C@H]2O)[C@](C)(O)C[C@@H](C)CN(C)[C@H](C)[C@@H](O)[C@]1(C)O [Azithromycin] : 32

MIC reading for C[C@H]1c2cccc(O)c2C(=O)C2=C(O)[C@]3(O)C(=O)C(C(N)=O)=C(O)[C@@H](N(C)C)[C@@H]3[C@@H](O)[C@@H]21 [Doxycycline] : 1

MIC reading for CC[C@H]1OC(=O)[C@H](C)[C@@H](O[C@H]2C[C@@](C)(OC)[C@@H](O)[C@H](C)O2)[C@H](C)[C@@H](O[C@@H]2O[C@H](C)C[C@H](N(C)C)[C@H]2O)[C@](C)(O)C[C@@H](C)C(=O)[C@H](C)[C@@H](O)[C@]1(C)O [Erythromycin] : 8

###

System: broad panel of different clinical isolates
Test: microbe, parasite or virus in culture
Type: cell-based
Settings: Haemophilus influenzae, ATCC9007, H. influenzae HAV#376, ATCC-9007
Hi there, I'd appreciate the recorded MIC for every entry that follows.
Quick reminder: number only, in µg/mL, skip the unit.

Value sought: MIC, system broad panel of different clinical isolates, item C[C@H]1COc2c(N3CCN(C)CC3)c(F)cc3c(=O)c(C(=O)O)cn1c23 . Result: 0.03

Value sought: MIC, system broad panel of different clinical isolates, item C[C@H]1c2cccc(O)c2C(=O)C2=C(O)[C@]3(O)C(=O)C(C(N)=O)=C(O)[C@@H](N(C)C)[C@@H]3[C@@H](O)[C@@H]21 . Result: 0.25

Value sought: MIC, system broad panel of different clinical isolates, item CCC[C@@H]1C[C@@H](C(=O)N[C@@H]([C@H]2O[C@H](SC)[C@H](O)[C@@H](O)[C@H]2O)[C@H](C)Cl)N(C)C1 [Clindamycin, clindamycin, reference compound] . Result: 8

Value sought: MIC, system broad panel of different clinical isolates, item CSC1O[C@H]([C@H](NC(=O)[C@H]2NC[C@@H]3C[C@H](CC(C)C)CCO[C@H]32)[C@H](C)Cl)C(O)[C@@H](O)[C@H]1O (stereo partly shown) [FSA-513018b] . Result: 0.5

Value sought: MIC, system broad panel of different clinical isolates, item CC(=O)NC[C@H]1CN(c2ccc(N3CCOCC3)c(F)c2)C(=O)O1 . Result: 4

Value sought: MIC, system broad panel of different clinical isolates, item CC[C@H]1OC(=O)[C@H](C)[C@@H](O[C@H]2C[C@@](C)(OC)[C@@H](O)[C@H](C)O2)[C@H](C)[C@@H](O[C@@H]2O[C@H](C)C[C@H](N(C)C)[C@H]2O)[C@](C)(O)C[C@@H](C)CN(C)[C@H](C)[C@@H](O)[C@]1(C)O . Result: 2

###

Test system: broad panel of different clinical isolates
Assay: microbe, parasite or virus in culture
Type: cell-based
Conditions: Staphylococcus epidermidis, S. epidermidis HAV#278 Line R
Method: Minimum inhibitory concentrations (MICs) were determined by broth microdilution method or agar dilution method following the Clinical and Laboratory Standards Institute guidelines. Standard bacterial strains were obtained from American Type Culture Collection (ATCC). Other bacterial strains were obtained from hospitals and commercial sources, so noted in Table 11. […] Specialized procedures were employed for streptococcal and anaerobic strains. […]
Hi there, I'd appreciate the recorded MIC for every entry that follows.

MIC reading for CCC[C@@H]1C[C@@H](C(=O)N[C@@H]([C@H]2O[C@H](SC)[C@H](O)[C@@H](O)[C@H]2O)[C@H](C)Cl)N(C)C1 [Clindamycin, clindamycin, reference compound] : > 128 mg/L

MIC reading for C[C@H]1c2cccc(O)c2C(=O)C2=C(O)[C@]3(O)C(=O)C(C(N)=O)=C(O)[C@@H](N(C)C)[C@@H]3[C@@H](O)[C@@H]21 [Doxycycline] : 4 mg/L

MIC reading for CO/N=C(\C(=O)N[C@@H]1C(=O)N2C(C(=O)O)=C(CSc3nc(=O)c(=O)[nH]n3C)CS[C@H]12)c1csc(N)n1 [Ceftriaxone] : > 128 mg/L

MIC reading for CN[C@H](CC(C)C)C(=O)N[C@H]1C(=O)N[C@@H](CC(N)=O)C(=O)N[C@H]2C(=O)N[C@H]3C(=O)N[C@H](C(=O)N[C@H](C(=O)O)c4cc(O)cc(O)c4-c4cc3ccc4O)[C@H](O)c3ccc(c(Cl)c3)Oc3cc2cc(c3O[C@@H]2O[C@H](CO)[C@@H](O)[C@H](O)[C@H]2O[C@H]2C[C@](C)(N)[C@H](O)[C@H](C)O2)Oc2ccc(cc2Cl)[C@H]1O [Vancomycin] : 2 mg/L

MIC reading for CSC1O[C@H]([C@H](NC(=O)[C@H]2NC[C@@H]3C[C@H](CC(C)C)CCO[C@H]32)[C@H](C)Cl)C(O)[C@@H](O)[C@H]1O (some centres unmarked) [FSA-513018b] : 32 mg/L

###

Test system: E. faecalis VRE
Assay: MIC (CLSI), third E. faecalis VRE line of Table 4
Assay type: cell-based
Conditions: Enterococcus faecalis; E. faecalis VRE (Table 4, third VRE line); read-out: MIC
MEASURED_ATTRIBUTE: MIC (µg/mL)
Quick reminder: number only, in µg/mL, skip the unit.

Value sought: MIC, system E. faecalis VRE, item CS[C@H]1O[C@H]([C@H](NC(=O)[C@H]2NC[C@@H]3C[C@H](CC(C)C)CCO[C@H]32)[C@H](C)Sc2ccc(CN(C)C)cc2)[C@H](O)[C@H](O)[C@H]1O . Result: 4

Value sought: MIC, system E. faecalis VRE, item CSC1O[C@H]([C@H](NC(=O)[C@H]2NC[C@@H]3C[C@H](CC(C)C)CCO[C@H]32)[C@H](C)Cl)C(O)[C@@H](O)[C@H]1O (stereo partly shown) [FSA-513018b] . Result: 1

Value sought: MIC, system E. faecalis VRE, item CCC[C@@H]1CCO[C@@H]2[C@H](CN[C@@H]2C(=O)N[C@H]([C@H](C)Cl)[C@H]2OC(SC)[C@H](O)[C@H](O)C2O)C1 (stereo partly shown) . Result: 2

Value sought: MIC, system E. faecalis VRE, item C=CC[C@@H]1CCO[C@@H]2[C@H](CN[C@@H]2C(=O)N[C@H]([C@H](C)Cl)[C@H]2OC(SC)[C@H](O)[C@H](O)C2O)C1 (stereo partly shown) . Result: 8
